These entries and their values trace back to patent US5086069A.

System: Human Platelets
Protocol Text: Inhibition of Fibrinogen-Mediated Platelet Aggregation
Type: cell-based
Condition Notes: thrombin-activated human platelets, human fibrinogen added; rate of aggregation
Metric Name: pIC50
Numbers only, as −log10 of the molar value.

Prompt: # input compound: CC(C)[C@H](NC(=O)[C@H](CC(=O)O)NC(=O)c1ccc(CCNC(=N)N)cc1)C(=O)O ; wanted: its pIC50
Completion: 5.11
